B1: TLE6 (parent)
chain: FWHDTLTEQLWRIFAGVHDEKAKP

variants of: B1; test: protein stability index of a GFP-peptide fusion (GPS, HEK-293T) (PSI 1-6); higher = more stable; details: c terminus: a fixed tail appended;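 note: lentivirally expressed fusions sorted by FACS into six bins by GFP to DsRed ratio, PSI derived from sequencing read proportions per bin multiplied by bin number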
Result Type: protein stability index
API note: the answer field is a bare number with no unit suffix.

Check out these entries, answers already filled in.
INSERT INTO assay_data (chain, result_type, numeric_readout) VALUES
  ('FWHDTLTEQLWRIFAGVSDEKAKP [H18S]', 'protein stability index', 2.72),
  ('FWHDTLTEQLWRIFAGVNDEKAKP [H18N]', 'protein stability index', 2.09),
  ('FWHDTWTEQLWRIFAGVHDEKAKP [L6W]', 'protein stability index', 1.27),
  ('FWHDTLTEQLWRIFAGDHDEKAKP [V17D]', 'protein stability index', 1.92),
  ('FWHDTLTEQLWQIFAGVHDEKAKP [R12Q]', 'protein stability index', 1.94),
  ('FWHDTLTEQLWRIFAGVHDWKAKP [E20W]', 'protein stability index', 2.86),
  ('FWHDTLTNQLWRIFAGVHDEKAKP [E8N]', 'protein stability index', 1.79),
  ('FWHRTLTEQLWRIFAGVHDEKAKP [D4R]', 'protein stability index', 1.58);

Query: Report protein stability index for WWHDTLTEQLWRIFAGVHDEKAKP [F1W] please.
Response: 1.82

Query: Report protein stability index for FWHDTLTEQLWRINAGVHDEKAKP [F14N] please.
Response: 1.45

Query: Report protein stability index for FWHDTLTEQLWRIFAGVHGEKAKP [D19G] please.
Response: 1.72

Query: Report protein stability index for FWHDTLTEELWRIFAGVHDEKAKP [Q9E] please.
Response: 1.58

Query: Report protein stability index for FWHDELTEQLWRIFAGVHDEKAKP [T5E] please.
Response: 1.91
